molecular target: USP25 (Homo sapiens (Human), UniProt Q9UHP3)
Sequence (Q9UHP3 whole entry): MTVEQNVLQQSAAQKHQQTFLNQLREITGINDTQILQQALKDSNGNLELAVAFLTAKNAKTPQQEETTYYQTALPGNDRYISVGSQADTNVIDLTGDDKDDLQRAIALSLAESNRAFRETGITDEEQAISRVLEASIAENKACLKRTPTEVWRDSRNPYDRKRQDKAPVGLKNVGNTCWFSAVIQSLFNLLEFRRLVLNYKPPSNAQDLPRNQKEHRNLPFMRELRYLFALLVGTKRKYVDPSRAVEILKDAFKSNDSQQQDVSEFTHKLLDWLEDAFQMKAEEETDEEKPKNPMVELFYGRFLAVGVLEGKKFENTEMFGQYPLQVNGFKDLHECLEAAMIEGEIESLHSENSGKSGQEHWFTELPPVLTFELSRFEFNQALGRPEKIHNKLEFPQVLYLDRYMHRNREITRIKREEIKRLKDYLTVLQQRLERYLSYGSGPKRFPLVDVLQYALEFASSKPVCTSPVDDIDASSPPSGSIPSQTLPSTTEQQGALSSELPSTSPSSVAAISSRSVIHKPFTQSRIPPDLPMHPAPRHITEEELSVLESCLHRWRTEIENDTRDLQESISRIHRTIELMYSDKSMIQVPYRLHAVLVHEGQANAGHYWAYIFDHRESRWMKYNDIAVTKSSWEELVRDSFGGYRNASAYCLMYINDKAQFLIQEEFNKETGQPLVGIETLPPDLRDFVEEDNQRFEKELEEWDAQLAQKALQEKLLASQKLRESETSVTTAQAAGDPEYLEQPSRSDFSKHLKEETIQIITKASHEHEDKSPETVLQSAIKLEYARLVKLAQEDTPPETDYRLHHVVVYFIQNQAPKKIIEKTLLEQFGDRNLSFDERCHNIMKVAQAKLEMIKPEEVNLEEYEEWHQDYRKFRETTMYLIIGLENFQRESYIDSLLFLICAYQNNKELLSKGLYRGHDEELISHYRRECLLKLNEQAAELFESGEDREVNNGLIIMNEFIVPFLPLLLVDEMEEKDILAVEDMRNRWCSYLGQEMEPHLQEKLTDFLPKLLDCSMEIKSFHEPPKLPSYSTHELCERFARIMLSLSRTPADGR
pIC50: −log10 of the molar value.
Recorded Metric: pIC50

Worked examples, 5 compounds total:
> print(dat)
                                   compound  result.value
1  C[C@H](O)c1ccc2c(N)c(C(=O)NCCc3ccc(N4CCNCC4)cc3)sc2n1 (single isomer, unassigned) [Example I-221]  4.60 to 5.00
2  Cc1ccc2c(N)c(C(=O)NCCc3ccc(-n4ncc5c4CNC5)cc3F)sc2n1 [Compound I-41]  5.70 to 6.70
3  Cc1ccc2c(N)c(C(=O)NCCc3cccc(CC(=O)O)c3)sc2n1 [Example I-178]  5.00 to 5.70
4  Cc1ccc2c(N)c(C(=O)NC[C@@H](C)c3ccc(N4CC5CCC(C4)N5)c(C#N)c3)sc2n1 (single isomer, unassigned) [Example I-109]  5.00 to 5.70
5  Cc1nc2sc(C(=O)NC[C@H](C)c3cc(F)c(N4CC5CCC(C4)N5)cc3F)c(N)c2cc1F (single isomer, unassigned) [Example I-112]  5.00 to 5.70

Which pIC50 reading was recorded for the compound Nc1nc2sc(C(=O)NCCc3ccc(N4CCNCC4)cc3)c(N)c2cc1F [Example I-115] ? 5.70 to 6.70

Which pIC50 reading was recorded for the compound Cc1ccc2c(N)c(C(=O)NCCc3cnc(N4CCNCC4)c(Cl)c3)sc2n1 [Example I-215] ? 5.00 to 5.70
